Molecular target: HLA-B*44:02
Experiment: IEDB peptide-MHC binding, purified MHC/competitive/radioactivity; filed as Kd, often an IC50 or EC50 that approximates it; bounds were set here for any values at or beyond the usual limits of such assays
Conditions: source organism: Mammarenavirus choriomeningitidis
Experimental Readout: Kd (nM)
Quick reminder: number only, in nM, skip the unit.

Task: So what does the record say about Kd for IETALRTLI ?
Output: 2780

====

Target: HLA-A*33:01
Test: IEDB peptide-MHC binding, purified MHC/competitive/radioactivity; filed as Kd, often an IC50 or EC50 that approximates it; bounds were set here for any values at or beyond the usual limits of such assays
Conditions: source organism: Vaccinia virus WR
Experimental Readout: pKd
Interpret pKd as the negative base-10 log of the concentration measured in mol/L.

Solved entries (count: 8):
VTMMKYCSY    5.69
VLDRDGNFR    6.22
LTMKAIEKDR    5.20
IITPVVFYR    8.18
WFLKSGAVVK    5.36
ITPDDGLGLR    5.00
GLTTHCTKLR    5.38
TTKDYFSFKK    5.88

With those in mind, consider the next sequence.
Task: So what does the record say about pKd for NATDFWRLY ?
Output: 6.28

====

Biological target: HLA-A*02:19
Assay: IEDB peptide-MHC binding, purified MHC/direct/fluorescence; filed as Kd, often an IC50 or EC50 that approximates it; bounds were set here for any values at or beyond the usual limits of such assays
Conditions: source organism: Listeria monocytogenes serotype 4b str. H7858
Experimental Readout: Kd

Task: So what does the record say about Kd for FRDEAGAIL ?
Output: ≥ 20 µM

====

Target: HLA-B*27:05
Assay: IEDB peptide-MHC binding, purified MHC/direct/fluorescence; filed as Kd, often an IC50 or EC50 that approximates it; bounds were set here for any values at or beyond the usual limits of such assays
Details: source organism: Francisella tularensis subsp. holarctica LVS
Experimental Readout: Kd

Task: So what does the record say about Kd for REMGIVDLL ?
Output: ≥ 20 µM

====

Molecular target: HLA-A*02:01
Assay: IEDB peptide-MHC binding, purified MHC/direct/fluorescence; filed as Kd, often an IC50 or EC50 that approximates it; bounds were set here for any values at or beyond the usual limits of such assays
Conditions: source organism: Yersinia enterocolitica
Experimental Readout: Kd
Mention the unit after the number when you answer.

Task: So what does the record say about Kd for IMDASSFTL ?
Output: 0.0308 µM

====

Target: HLA-B*15:01
Assay: IEDB peptide-MHC binding, purified MHC/direct/fluorescence; filed as Kd, often an IC50 or EC50 that approximates it; bounds were set here for any values at or beyond the usual limits of such assays
Details: source organism: Brucella suis
pKd: −log10 of the molar value.
Experimental Readout: pKd

Task: Notebook entry, HLA-B*15:01 assay: pKd of DVIGNDRQE = ?
Output: ≤ 4.70

====

Molecular target: HLA-B*46:01
Assay: IEDB peptide-MHC binding, purified MHC/competitive/fluorescence; filed as Kd, often an IC50 or EC50 that approximates it; bounds were set here for any values at or beyond the usual limits of such assays
Details: source organism: Orthohantavirus andesense
Experimental Readout: Kd

Task: So what does the record say about Kd for VWKQLFPEL ?
Output: ≥ 20 µM

====

The reader will find reported pKd values listed item by item below.
Biological target: HLA-A*01:01
Experiment: IEDB peptide-MHC binding, purified MHC/competitive/radioactivity; filed as Kd, often an IC50 or EC50 that approximates it; bounds were set here for any values at or beyond the usual limits of such assays
Conditions: source organism: Mammarenavirus brazilense
Interpret pKd as the negative base-10 log of the concentration measured in mol/L.

DEALRGFLLY    4.83

Task: So what does the record say about pKd for ELLNTPYCNY ?
Output: 4.91

====

Molecular target: HLA-B*18:01
Test: IEDB peptide-MHC binding, purified MHC/direct/fluorescence; filed as Kd, often an IC50 or EC50 that approximates it; bounds were set here for any values at or beyond the usual limits of such assays
Settings: source organism: Mammarenavirus juninense
Experimental Readout: Kd

Task: So what does the record say about Kd for FRRVAHSSL ?
Output: ≥ 20 µM

====

Target: HLA-A*01:01
Assay: IEDB peptide-MHC binding, purified MHC/direct/fluorescence; filed as Kd, often an IC50 or EC50 that approximates it; bounds were set here for any values at or beyond the usual limits of such assays
Conditions: source organism: Francisella tularensis subsp. holarctica LVS
pKd: −log10 of the molar value.
Experimental Readout: pKd

Task: Notebook entry, HLA-A*01:01 assay: pKd of REMGIVDLL = ?
Output: ≤ 4.70

====

Target: HLA-B*08:01
Test: IEDB peptide-MHC binding, purified MHC/direct/fluorescence; filed as Kd, often an IC50 or EC50 that approximates it; bounds were set here for any values at or beyond the usual limits of such assays
Settings: source organism: Haemophilus influenzae
Experimental Readout: Kd

Task: So what does the record say about Kd for IMDEPTSSL ?
Output: ≥ 20 µM

====

Molecular target: HLA-B*57:01
Experiment: IEDB peptide-MHC binding, purified MHC/competitive/radioactivity; filed as Kd, often an IC50 or EC50 that approximates it; bounds were set here for any values at or beyond the usual limits of such assays
Settings: source organism: Dengue virus 4 Philippines/H241/1956
Experimental Readout: pKd
Interpret pKd as the negative base-10 log of the concentration measured in mol/L.

Task: So what does the record say about pKd for LSSRATWAKN ?
Output: 5.73

====

Biological target: HLA-B*39:01
Experiment: IEDB peptide-MHC binding, purified MHC/competitive/fluorescence; filed as Kd, often an IC50 or EC50 that approximates it; bounds were set here for any values at or beyond the usual limits of such assays
Conditions: source organism: Parafrankia sp. EAN1pec
Experimental Readout: pKd
Interpret pKd as the negative base-10 log of the concentration measured in mol/L.

Task: So what does the record say about pKd for KPARGGSSI ?
Output: 5.56

====

Molecular target: HLA-A*32:01
Assay: IEDB peptide-MHC binding, purified MHC/competitive/radioactivity; filed as Kd, often an IC50 or EC50 that approximates it; bounds were set here for any values at or beyond the usual limits of such assays
Conditions: source organism: Mammarenavirus guanaritoense
Experimental Readout: Kd

Task: So what does the record say about Kd for CSKILDLCY ?
Output: ≥ 50.9 µM

====

Target: HLA-A*69:01
Test: IEDB peptide-MHC binding, purified MHC/competitive/fluorescence; filed as Kd, often an IC50 or EC50 that approximates it; bounds were set here for any values at or beyond the usual limits of such assays
Conditions: source organism: Coxiella burnetii RSA 331
Experimental Readout: Kd

Task: So what does the record say about Kd for HMNKLPLAK ?
Output: ≥ 20 µM

====

Molecular target: HLA-A*03:01
Assay: IEDB peptide-MHC binding, purified MHC/competitive/radioactivity; filed as Kd, often an IC50 or EC50 that approximates it; bounds were set here for any values at or beyond the usual limits of such assays
Details: source organism: Mammarenavirus brazilense
Experimental Readout: pKd
Interpret pKd as the negative base-10 log of the concentration measured in mol/L.

Task: So what does the record say about pKd for KCSDHYICLK ?
Output: 6.56

====

Target: HLA-B*39:01
Assay: IEDB peptide-MHC binding, purified MHC/competitive/fluorescence; filed as Kd, often an IC50 or EC50 that approximates it; bounds were set here for any values at or beyond the usual limits of such assays
Conditions: source organism: Yersinia pseudotuberculosis IP 31758
Experimental Readout: pKd
Interpret pKd as the negative base-10 log of the concentration measured in mol/L.

Task: So what does the record say about pKd for YRYEFNNDW ?
Output: 6.00

====

Target: HLA-B*27:05
Assay: IEDB peptide-MHC binding, purified MHC/direct/fluorescence; filed as Kd, often an IC50 or EC50 that approximates it; bounds were set here for any values at or beyond the usual limits of such assays
Conditions: source organism: Mycobacterium tuberculosis
pKd: −log10 of the molar value.
Experimental Readout: pKd

Task: So what does the record say about pKd for KPARGGSSI ?
Output: ≤ 4.70

====

Target: HLA-A*02:03
Test: IEDB peptide-MHC binding, purified MHC/competitive/fluorescence; filed as Kd, often an IC50 or EC50 that approximates it; bounds were set here for any values at or beyond the usual limits of such assays
Settings: source organism: Entamoeba dispar SAW760
pKd: −log10 of the molar value.
Experimental Readout: pKd

LVGNTLTTC    ≤ 4.70

With those in mind, consider the next sequence.
Task: So what does the record say about pKd for FELLHFISS ?
Output: ≤ 4.70

====

Target: HLA-C*12:03
Test: IEDB peptide-MHC binding, purified MHC/direct/fluorescence; filed as Kd, often an IC50 or EC50 that approximates it; bounds were set here for any values at or beyond the usual limits of such assays
Conditions: source organism: Salmonella enterica subsp. enterica serovar Typhi str. CT18
Experimental Readout: Kd (nM)
Quick reminder: number only, in nM, skip the unit.

Task: Notebook entry, HLA-C*12:03 assay: Kd of WTFTPTTPL = ?
Output: 212

Taken from the Immune Epitope Database (IEDB).
